- Assay target: human GRP receptor (human, UniProt P30550 1-384)
- Sequence (P30550 whole entry): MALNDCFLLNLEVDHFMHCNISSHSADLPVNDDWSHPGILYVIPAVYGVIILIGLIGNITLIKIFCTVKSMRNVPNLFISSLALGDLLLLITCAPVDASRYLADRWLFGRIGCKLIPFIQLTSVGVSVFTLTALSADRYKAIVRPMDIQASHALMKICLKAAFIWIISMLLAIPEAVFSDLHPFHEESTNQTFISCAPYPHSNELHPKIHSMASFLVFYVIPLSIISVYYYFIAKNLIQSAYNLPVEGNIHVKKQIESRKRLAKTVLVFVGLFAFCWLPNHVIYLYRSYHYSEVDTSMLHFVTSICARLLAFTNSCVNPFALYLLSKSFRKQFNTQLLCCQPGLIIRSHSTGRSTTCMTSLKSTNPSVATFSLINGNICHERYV
- Test: cell-based or functional assay
Starred links: 1 amine or outer side, 2 acyl side, 3 side chain; linkers in the order of their positions; H or OH if unused. Non-standard residues stand in square brackets, D forms with d. *: point of attachment. Trp(7-F) = N[C@@H](Cc1c[nH]c2c(F)cccc12)C(=O)O; Trp(7-Me) = Cc1cccc2c(C[C@H](N)C(=O)O)c[nH]c12; C20 diacid = O=C(O)CCCCCCCCCCCCCCCCCCC(=O)*; d(γGlu) = O=C(O)[C@@H](CCC(=O)[*:2])N[*:1]; C18 diacid = O=C(O)CCCCCCCCCCCCCCCCC(=O)*; γGlu = O=C(O)[C@H](CCC(=O)[*:2])N[*:1]; Palmitoyl = CCCCCCCCCCCCCCCC(=O)*; 3Pal = N[C@@H](Cc1cccnc1)C(=O)O; Nle = CCCC[C@H](N)C(=O)O; AEEA = NCCOCCOCC(=O)O; Sar = CNCC(=O)O
Assay metric: hIP1 GRPR EC50 (nM)
Value expressed in nM; do not type the unit.

- Binder: "{C18 diacid}-[γGlu][AEEA][AEEA]GNH[Trp(7-F)]AV[dA]HL[Nle]-NH2 (SMILES CCCC[C@H](NC(=O)[C@H](CC(C)C)NC(=O)[C@H](Cc1c[nH]cn1)NC(=O)[C@@H](C)NC(=O)[C@@H](NC(=O)[C@H](C)NC(=O)[C@H](Cc1c[nH]c2c(F)cccc12)NC(=O)[C@H](Cc1c[nH]cn1)NC(=O)[C@H](CC(N)=O)NC(=O)CNC(=O)COCCOCCNC(=O)COCCOCCNC(=O)CC[C@H](NC(=O)CCCCCCCCCCCCCCCCC(=O)O)C(=O)O)C(C)C)C(N)=O) [Peptide 86]"
  hIP1 GRPR EC50 (nM): 17.6

// query State the recorded hIP1 GRPR EC50 for this entry: {C18 diacid}-[d(γGlu)][AEEA][AEEA][AEEA][AEEA]GN[3Pal]WAV[dA]HL[Nle]-NH2 (SMILES CCCC[C@H](NC(=O)[C@H](CC(C)C)NC(=O)[C@H](Cc1c[nH]cn1)NC(=O)[C@@H](C)NC(=O)[C@@H](NC(=O)[C@H](C)NC(=O)[C@H](Cc1c[nH]c2ccccc12)NC(=O)[C@H](Cc1cccnc1)NC(=O)[C@H](CC(N)=O)NC(=O)CNC(=O)COCCOCCNC(=O)COCCOCCNC(=O)COCCOCCNC(=O)COCCOCCNC(=O)CC[C@@H](NC(=O)CCCCCCCCCCCCCCCCC(=O)O)C(=O)O)C(C)C)C(N)=O) [Peptide 83]
// result 109

// query Also, {C20 diacid}-[γGlu]GRHWAV[dA]HL[Nle]-NH2 (SMILES CCCC[C@H](NC(=O)[C@H](CC(C)C)NC(=O)[C@H](Cc1c[nH]cn1)NC(=O)[C@@H](C)NC(=O)[C@@H](NC(=O)[C@H](C)NC(=O)[C@H](Cc1c[nH]c2ccccc12)NC(=O)[C@H](Cc1c[nH]cn1)NC(=O)[C@H](CCCNC(=N)N)NC(=O)CNC(=O)CC[C@H](NC(=O)CCCCCCCCCCCCCCCCCCC(=O)O)C(=O)O)C(C)C)C(N)=O) [Peptide 153] please.
// result 2.87

// query Also, Palmitoyl-[d(γGlu)][AEEA][AEEA]GEHWAV[dA]HL[Nle]-NH2 (SMILES CCCCCCCCCCCCCCCC(=O)N[C@H](CCC(=O)NCCOCCOCC(=O)NCCOCCOCC(=O)NCC(=O)N[C@@H](CCC(=O)O)C(=O)N[C@@H](Cc1c[nH]cn1)C(=O)N[C@@H](Cc1c[nH]c2ccccc12)C(=O)N[C@@H](C)C(=O)N[C@H](C(=O)N[C@H](C)C(=O)N[C@@H](Cc1c[nH]cn1)C(=O)N[C@@H](CC(C)C)C(=O)N[C@@H](CCCC)C(N)=O)C(C)C)C(=O)O) [Peptide 16] please.
// result 5.8

// query Also, EXXGNHWAVGHLM (Palmitoyl-D-γGlu-OEG-OEG-Gly-Asn-His-Trp-Ala-Val-Gly-His-Leu-Met-NH2) [Peptide 8] please.
// result 1.7

// query Also, {C18 diacid}-[d(γGlu)][AEEA][AEEA]GNH[Trp(7-Me)]AV[dA]HL[Nle][Sar]-NH2 (SMILES CCCC[C@H](NC(=O)[C@H](CC(C)C)NC(=O)[C@H](Cc1c[nH]cn1)NC(=O)[C@@H](C)NC(=O)[C@@H](NC(=O)[C@H](C)NC(=O)[C@H](Cc1c[nH]c2c(C)cccc12)NC(=O)[C@H](Cc1c[nH]cn1)NC(=O)[C@H](CC(N)=O)NC(=O)CNC(=O)COCCOCCNC(=O)COCCOCCNC(=O)CC[C@@H](NC(=O)CCCCCCCCCCCCCCCCC(=O)O)C(=O)O)C(C)C)C(=O)N(C)CC(N)=O) [Peptide 81] please.
// result 505

// query Also, {C20 diacid}-[γGlu][AEEA][AEEA]GRHWAV[dA]HL[Nle]-NH2 (SMILES CCCC[C@H](NC(=O)[C@H](CC(C)C)NC(=O)[C@H](Cc1c[nH]cn1)NC(=O)[C@@H](C)NC(=O)[C@@H](NC(=O)[C@H](C)NC(=O)[C@H](Cc1c[nH]c2ccccc12)NC(=O)[C@H](Cc1c[nH]cn1)NC(=O)[C@H](CCCNC(=N)N)NC(=O)CNC(=O)COCCOCCNC(=O)COCCOCCNC(=O)CC[C@H](NC(=O)CCCCCCCCCCCCCCCCCCC(=O)O)C(=O)O)C(C)C)C(N)=O) [Peptide 150] please.
// result 4.09
